// data source = patent EP4722219A1

Test system: VCaP cells
procedure details: Inhibition of VCaP cell proliferation (WST-8)
Type: cell-based
run conditions: Homo sapiens, 168 hours
Records here are stratified by IC50; strata: A: < 50 nM; B: ≥ 50 nM and < 300 nM; C: ≥ 300 nM

molecule | measured on | class assignment
COc1cc2c(cc1C(=O)N[C@H]1CCC(=O)NC1=O)OC[C@H]1CN(CC3CCN(C(=O)c4ccc(N5CCC6(CC5)C[C@H](C)N(c5ccc(C#N)c(Cl)c5)C6)cc4)CC3)CCN21 | VCaP cells | B
COc1cc(O[C@H]2C(C)(C)[C@H](NC(=O)c3ccc(N4CCC(C)(CN5CCC6(CCc7cc(C(=O)N[C@H]8CCC(=O)NC8=O)c(F)cc7O6)CC5)CC4)cc3)C2(C)C)ccc1C#N | VCaP cells | C
COc1cc(O[C@H]2C(C)(C)[C@H](NC(=O)c3ccc(N4CCC(N5CC6(CCC7(CC6)COc6c7ccc7c6CN(C6CCC(=O)NC6=O)C7=O)C5)CC4)cc3)C2(C)C)ccc1C#N (stereo partly shown) | VCaP cells | A
N#Cc1cc2c(cc1Cl)OCC1(CCN(C(=O)c3ccc(N4CCC(CN5CCC6(CCc7cc(C(=O)N[C@H]8CCC(=O)NC8=O)c(F)cc7O6)CC5)CC4)cc3)CC1)O2 | VCaP cells | C
COc1cc(O[C@H]2C(C)(C)[C@H](NC(=O)c3ccc(N4CCC(C)(CN5CCC6(CCc7cc(C(=O)N[C@H]8CCC(=O)NC8=O)c(F)cc7O6)CC5)CC4)nn3)C2(C)C)ccc1C#N | VCaP cells | C

Class for COc1cc(O[C@H]2C(C)(C)[C@H](NC(=O)c3ccc(N4CCC5(CC4)CC(N4CCC6(CC4)COc4cc7c(cc46)n(C)c(=O)n7C4CCC(=O)NC4=O)C5)cc3)C2(C)C)ccc1C#N (relative stereo) ?
A

Class for `C[C@H]1CC2(CCN(c3ccc(N4CCC(CN5CCN6c7ccc(C(=O)N[C@H]8CCC(=O)NC8=O)c(F)c7OC[C@H]6C5)CC4)cc3)CC2)CN1c1ccc(C#N)c(Cl)c1` ?
B

Class for `CC1(C)[C@H](NC(=O)c2ccc(N3CCC(CN4CCN5c6ccc(C(=O)N[C@H]7CCC(=O)NC7=O)cc6OC[C@H]5C4)CC3)cc2)C(C)(C)[C@H]1Oc1ccc(C#N)c(Cl)c1` ?
A

----------
measured on: ERα (Homo sapiens)
Sequence (P03372 whole entry): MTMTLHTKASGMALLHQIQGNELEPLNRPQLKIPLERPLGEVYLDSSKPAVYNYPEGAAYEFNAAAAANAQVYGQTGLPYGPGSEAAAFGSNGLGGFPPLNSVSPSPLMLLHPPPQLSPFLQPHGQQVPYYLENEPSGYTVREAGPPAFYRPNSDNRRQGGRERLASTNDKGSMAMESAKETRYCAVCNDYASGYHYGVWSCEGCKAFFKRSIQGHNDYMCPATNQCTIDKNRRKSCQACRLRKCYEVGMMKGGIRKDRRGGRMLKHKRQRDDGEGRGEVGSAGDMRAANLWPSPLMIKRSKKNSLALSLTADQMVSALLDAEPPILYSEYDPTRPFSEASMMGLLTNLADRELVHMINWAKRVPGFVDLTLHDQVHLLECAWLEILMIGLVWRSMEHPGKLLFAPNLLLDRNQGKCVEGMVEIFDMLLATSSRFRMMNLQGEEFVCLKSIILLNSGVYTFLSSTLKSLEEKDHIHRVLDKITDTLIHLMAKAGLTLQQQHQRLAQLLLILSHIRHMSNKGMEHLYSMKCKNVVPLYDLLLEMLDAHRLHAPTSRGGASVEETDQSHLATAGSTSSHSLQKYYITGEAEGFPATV
procedure details: ERα degradation in T-47D cells (Western blot)
Type: cell-based
run conditions: 1nM, 4 hours
measured endpoint: Degradation rate of ERα in T-47D cells (%)
Answer format: numeric, % implied, no suffix.

Respond only with Degradation rate of ERα in T-47D cells (%) recorded for O=C1CC[C@H](NC(=O)c2ccc3c(c2F)OCC32CCN(C3CCC4(CC3)CN(c3ccc([C@@H]5c6ccc(O)cc6CC[C@@H]5c5ccccc5)cc3)C4)CC2)C(=O)N1 [ER-P-38]
1

Respond only with Degradation rate of ERα in T-47D cells (%) recorded for O=C1CC[C@H](NC(=O)c2cc3c(cc2F)N2CCN(C[C@H]4CC[C@@H](OC5CCN(c6ccc([C@@H]7c8ccc(O)cc8CC[C@@H]7c7ccccc7)cc6)CC5)CC4)C[C@@H]2CO3)C(=O)N1 [ER-P-67]
6

Respond only with Degradation rate of ERα in T-47D cells (%) recorded for O=C1CC[C@H](NC(=O)c2ccc3c(c2)OCC[C@H]2CN(CC4CCC(OC5CCN(c6ccc([C@@H]7c8ccc(O)cc8CC[C@@H]7c7ccccc7)cc6)CC5)CC4)CCN32)C(=O)N1 (some centres unmarked) [ER-P-45]
-5

Respond only with Degradation rate of ERα in T-47D cells (%) recorded for O=C1CCC(N2Cc3c(ccc4c3OCC43CCC4(CCN(C5CCN(C(=O)C6CCN(c7ccc([C@@H]8c9ccc(O)cc9CC[C@@H]8c8ccccc8)cc7)CC6)CC5)CC4)CC3)C2=O)C(=O)N1 (some centres unmarked) [ER-P-5]
39

Respond only with Degradation rate of ERα in T-47D cells (%) recorded for O=C1CCC(Nc2ccc3c(c2)COC[C@H]2CN(CC4CCC(OC5CCN(c6ccc([C@@H]7c8ccc(O)cc8CC[C@@H]7c7ccccc7)cc6)CC5)CC4)CCN32)C(=O)N1 (single isomer, unassigned) [ER-P-51]
14
